Target: BlaR (Staphylococcus aureus)
Sequence (P18357 whole entry): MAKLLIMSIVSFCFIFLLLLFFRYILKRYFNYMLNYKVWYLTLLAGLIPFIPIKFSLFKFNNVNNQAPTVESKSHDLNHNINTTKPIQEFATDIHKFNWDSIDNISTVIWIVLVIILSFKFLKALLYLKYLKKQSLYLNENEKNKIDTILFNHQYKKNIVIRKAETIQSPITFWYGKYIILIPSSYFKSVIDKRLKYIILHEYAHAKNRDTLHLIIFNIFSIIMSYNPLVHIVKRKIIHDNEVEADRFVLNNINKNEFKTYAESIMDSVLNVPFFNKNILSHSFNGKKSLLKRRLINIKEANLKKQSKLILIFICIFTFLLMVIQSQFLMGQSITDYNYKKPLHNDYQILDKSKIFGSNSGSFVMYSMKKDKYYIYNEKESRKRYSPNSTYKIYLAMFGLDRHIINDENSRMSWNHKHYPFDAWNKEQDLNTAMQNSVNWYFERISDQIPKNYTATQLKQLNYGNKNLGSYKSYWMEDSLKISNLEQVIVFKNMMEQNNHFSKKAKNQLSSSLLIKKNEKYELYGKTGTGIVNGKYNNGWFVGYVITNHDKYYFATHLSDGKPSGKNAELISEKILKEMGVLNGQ
Assay: Live-cell fluorescent assay for BlaR inhibition (Venus reporter)
Format: cell-based, S. aureus NRS144pCN52RI-Venus
Conditions: compound at 100 mg/L^−1; CBAP 10 mg·L^−1; fluorescence after 2 h
Assignment: determine reported % Inhibition of BlaR for the given compounds.
Enter your answer as a number in %; do not include the unit.

Looking up "O=C(/C=C/c1ccc(F)cc1)NCc1ccc2nc(S(=O)(=O)O)n(Cc3ccc(C(F)(F)F)cc3C(F)(F)F)c2c1" , I found its % Inhibition of BlaR recorded as 99

Entry "O=C(/C=C/c1ccc(F)cc1)NCc1ccc2nc(S)n(Cc3ccc(C(F)(F)F)cc3C(F)(F)F)c2c1" — recorded % Inhibition of BlaR = 76

% Inhibition of BlaR reported for this compound "OCc1cn(Cc2ccc(C(F)(F)F)cc2C(F)(F)F)c(=S)[nH]1" : 92

Reported % Inhibition of BlaR ( "NCc1cn(Cc2ccc(C(F)(F)F)cc2C(F)(F)F)c(=S)[nH]1" ) = 50

Just so you know, measured % Inhibition of BlaR for "O=C(/C=C/c1ccc(C(F)(F)F)cc1F)NCc1ccc2nc(S(=O)(=O)O)n(Cc3ccc(C(F)(F)F)cc3C(F)(F)F)c2c1" came out at 92

The measured % Inhibition of BlaR associated with "OCc1ccc2nc(S)n(Cc3ccc(C(F)(F)F)cc3C(F)(F)F)c2c1" reads 0

Briefly, % Inhibition of BlaR measured for "O=S(=O)(O)c1nc2ccccc2n1Cc1ccc(Cl)cc1" : 72

// C[N+]12CC(=O)O[B-]1(CSc1nc3ccc(C#N)cc3n1Cc1ccc(C(F)(F)F)cc1C(F)(F)F)OC(=O)C2 (stereo not shown) : % Inhibition of BlaR value = 93

According to the records, this compound "N#Cc1cn(Cc2ccc(C(F)(F)F)cc2C(F)(F)F)cn1" displays % Inhibition of BlaR of 0

Looking up "CC(C)(C)OC(=O)NCc1cn(Cc2ccc(C(F)(F)F)cc2C(F)(F)F)c(S(=O)(=O)O)n1" , I see its % Inhibition of BlaR listed as 75

Entry "O=C(CCc1ccc(F)cc1)NCc1ccc2nc(S)n(Cc3ccc(C(F)(F)F)cc3C(F)(F)F)c2c1" — recorded % Inhibition of BlaR = 59

% Inhibition of BlaR for "O=S(=O)(O)c1nc2ccccc2n1Cc1ccccc1C(F)(F)F" is 69

// % Inhibition of BlaR value for "FC(F)(F)c1ccc(Cn2c(=S)[nH]c3ccccc32)c(C(F)(F)F)c1" : 65

Per the record, "N#Cc1ccc2nc(N)n(Cc3ccc(C(F)(F)F)cc3C(F)(F)F)c2c1" has % Inhibition of BlaR of 55

Record summary for "COc1ccc(CSc2nc(CNC(=O)OCc3ccccc3)cn2Cc2ccc(C(F)(F)F)cc2C(F)(F)F)cc1" : reported % Inhibition of BlaR = 19

"O=S(=O)(Cl)c1nc(CO)cn1Cc1ccc(C(F)(F)F)cc1C(F)(F)F" has a reported % Inhibition of BlaR of 83

* * *

Experiment: PK study, plasma and thighs
Assay type: in vivo, mice
Details: mouse, thigh, sc; mice; single subcutaneous dose 25 mg·kg^−1; read-out: Maximum concentration in thighs
ENDPOINT: Cmax at 4 h (ng/mL)
Write it as a number; the unit ng/mL goes unstated.

# Cmax at 4 h (compound: N#Cc1ccc2nc(SCB(O)O)n(Cc3ccc(C(F)(F)F)cc3C(F)(F)F)c2c1 [Compound 4] ) is 28000

* * *

System: MSSA476 (NRS72), MSSA, bla +
Assay: MIC determination and potentiation assay (microdilution broth)
Format: cell-based
Settings: Staphylococcus aureus; MSSA476 (NRS72); agent alone; read-out: MIC
Record form. Attribute: MIC. Fill in for each entry.
Just the number in µg/mL, nothing appended.

Lab note: measured MIC of "CCO/N=C(\C(=O)N[C@@H]1C(=O)N2C(C(=O)[O-])=C(Sc3nc(-c4cc[n+](C)cc4)cs3)CS[C@H]12)c1nsc(N)n1" was 0.13

Record "N#Cc1ccc2nc(SCB(O)O)n(Cc3ccc(C(F)(F)F)cc3C(F)(F)F)c2c1" . Reported MIC: 32

MIC for "CO[C@@]1(NC(=O)Cc2cccs2)C(=O)N2C(C(=O)O)=C(COC(N)=O)CS[C@@H]21" is 4

Noted for "C[C@@H](O)[C@H]1C(=O)N2C(C(=O)O)=C(S[C@@H]3CN[C@H](C(=O)N(C)C)C3)[C@H](C)[C@H]12" : its MIC reads 0.13

* * *

Test system: S. aureus NRS144pCN52RI-Venus
Assay: Bacterial growth inhibition (OD600) in the fluorescent screening assay
Format: cell-based, Staphylococcus aureus
Details: compound at 100 mg/L^−1; OD600 after 2 h
Kindly supply the reported % Inhibition of bacterial growth values for the records listed here.
Answer in %, number only, no unit symbol.

Let me check: FC(F)(F)c1ccc(Cn2c(CBr)nc3ccccc32)c(C(F)(F)F)c1 [Compound 41] , system S. aureus NRS144pCN52RI-Venus, measured % Inhibition of bacterial growth is 36

Field % Inhibition of bacterial growth (system: S. aureus NRS144pCN52RI-Venus) for entry CC(C)(C)OC(=O)NCc1cn(Cc2ccc(C(F)(F)F)cc2C(F)(F)F)c(S(=O)(=O)O)n1 [Compound 64] = 40

Measured on S. aureus NRS144pCN52RI-Venus, OB(O)Cc1nc2ccccc2n1Cc1ccc(C(F)(F)F)cc1C(F)(F)F [Compound 42] has a documented % Inhibition of bacterial growth of 82

Item OB(O)CSc1nc2ccccc2n1Cc1ccc(C(F)(F)F)cc1C(F)(F)F [Compound 3] ; assay system S. aureus NRS144pCN52RI-Venus; % Inhibition of bacterial growth reported as 20

Sample COC(=O)c1ccc2nc(SCCC#N)n(Cc3ccc(C(F)(F)F)cc3C(F)(F)F)c2c1 [Compound 38] , system: S. aureus NRS144pCN52RI-Venus. Its % Inhibition of bacterial growth is 16

S. aureus NRS144pCN52RI-Venus data for O=S(=O)(O)c1nc2ccccc2n1Cc1ccc(C(F)(F)F)cc1C(F)(F)F [Compound 1] ; its % Inhibition of bacterial growth: 0

Value (% Inhibition of bacterial growth, S. aureus NRS144pCN52RI-Venus) for record OCC1NC(=S)N(c2ccc(C(F)(F)F)cc2)N1 (centres unmarked) [Compound 79] = 65

For the molecule NCc1ccc2nc(S)n(Cc3ccc(C(F)(F)F)cc3C(F)(F)F)c2c1 [Compound 14] , the measured % Inhibition of bacterial growth on S. aureus NRS144pCN52RI-Venus was 0

* * *

Assay: PK study, plasma and thighs
Assay type: in vivo, mice
Details: mouse, plasma, sc; mice; single subcutaneous dose 25 mg·kg^−1; read-out: Maximum concentration in plasma
Method: Pharmacokinetics of Compound 4 and In Vivo Efficacy. We next evaluated the pharmacokinetics (PK) of compound 4 and its distribution to the thighs (sites of infection in the disease model) after a single subcutaneous dose at 25 mg·kg^−1 to mice. Animals. […] Plasma and thigh samples were analyzed on a Waters Acquity UPLC (Waters Corp., Milford, MA) coupled with a diode array detector with UV detection at 320-330 nm. […]
ENDPOINT: Cmax at 4 h (ng/mL)
Record the value in ng/mL, omitting the unit from your answer.

The recorded Cmax at 4 h for "N#Cc1ccc2nc(SCB(O)O)n(Cc3ccc(C(F)(F)F)cc3C(F)(F)F)c2c1" is 8500

* * *

Biological target: BlaR (Staphylococcus aureus)
Test: Live-cell fluorescent assay for BlaR inhibition (Venus reporter)
Format: cell-based, S. aureus NRS144pCN52RI-Venus
Details: compound at 100 mg/L^−1; CBAP 10 mg·L^−1; fluorescence after 2 h
Quick rule for you: % Inhibition of BlaR at 70% or higher means Satisfied, lower means Not satisfied.

Task item: Decide: is the reported value of % Inhibition of BlaR for COC(=O)c1ccc2nc(SC[B-]34OC(=O)C[N+]3(C)CC(=O)O4)n(Cc3ccc(C(F)(F)F)cc3C(F)(F)F)c2c1 (stereo not drawn) [Compound 35] equal to or greater than 70%?
Reply: Satisfied

Task item: Is the recorded value of % Inhibition of BlaR equal to or greater than 70% for this molecule? O=S(=O)(O)c1nc(CO)cn1Cc1ccc(C(F)(F)F)cc1C(F)(F)F [Compound 60]
Reply: Not satisfied

Task item: Record O=S(=O)(O)c1nccn1Cc1ccc(C(F)(F)F)cc1C(F)(F)F [Compound 54] ; criterion: % Inhibition of BlaR no lower than 70%. Met?
Reply: Not satisfied

Task item: Decide: % Inhibition of BlaR of OCc1nc2ccccc2n1Cc1ccc(C(F)(F)F)cc1C(F)(F)F [Compound 40] >= 70%?
Reply: Not satisfied

Task item: % Inhibition of BlaR >= 70% for "OC[C@@H](O)[C@@H](O)c1cn(Cc2ccccc2)c(=S)[nH]1" ?
Reply: Not satisfied

Task item: Entry OB(O)CSc1nc2ccccc2n1Cc1ccc(C(F)(F)F)cc1C(F)(F)F [Compound 3] : is its % Inhibition of BlaR no less than 70%?
Reply: Satisfied

Task item: Threshold query (% Inhibition of BlaR >= 70%) on N#CCCSc1nc2ccc(C#N)cc2n1Cc1ccc(C(F)(F)F)cc1C(F)(F)F [Compound 36]
Reply: Satisfied

Task item: Check this molecule for % Inhibition of BlaR at or above 70%: O=S(=O)(O)c1nc2ccccc2n1Cc1ccc(F)cc1C(F)(F)F [Compound 11]
Reply: Satisfied
